Tested on: Trypsin
Assay: Inhibition of enzymatic degradation of a model GLP-1 (FRET substrate) by trypsin
Type: biochemical
Settings: read-out: EC50 Trypsin (0.001 mg/ml), 0.001 mg/ml trypsin, 37° C.
Starred links: 1 amine or outer side, 2 acyl side, 3 side chain; linkers in the order of their positions; H or OH if unused. Residues, ends and D or L forms follow the SMILES beside them. *: point of attachment. γGlu = O=C(O)[C@H](CCC(=O)[*:2])N[*:1]; Palmitoyl = CCCCCCCCCCCCCCCC(=O)*; Myristoyl = CCCCCCCCCCCCCC(=O)*
experimental-readout: EC50 (µM)

| compound | target-desc | experimental-readout | recorded-number |
| --- | --- | --- | --- |
| CCCCCCCCCCCCCC(=O)N[C@@H](CCC(=O)N[C@@H](C)C(=O)N1CCC[C@H]1C(=O)N[C@@H](Cc1ccccc1)C(=O)O)C(=O)O [Example 23, N-tetradecanoyl-γGlu-Ala-Pro-Phe-OH] ({Myristoyl-γGlu}-Ala-Pro-Phe-OH) | Trypsin | EC50 | 44 |

[1] CCCCCCCCCCCCCCCC(=O)N[C@@H](CCC(=O)N[C@@H](C)C(=O)N[C@@H](C)C(=O)N1CCC[C@H]1C(=O)N[C@@H](Cc1ccccc1)C(=O)O)C(=O)O [Example 135, N-hexadecanoyl-γGlu-Ala-Ala-Pro-Phe-OH] ({Palmitoyl-γGlu}-AAPF-OH)
[2] CCCCCCCCCCCCCC(=O)N[C@@H](Cc1c[nH]cn1)C(=O)N[C@@H](C)C(=O)N[C@@H](CCCNC(=N)N)C(=O)N1CCC[C@H]1C(=O)N[C@@H](Cc1ccccc1)C(=O)O [Example 178, N-tetradecanoyl-His-Ala-Arg-Pro-Phe-OH] (Myristoyl-HARPF-OH)
[in] // pick larger EC50 from pair: 1 vs 2 Indicate your choice by writing its label.
[out] 2
(2: 102 µM, 1: 40 µM)

* * *

Assay: Hydrophobicity: retention time during reverse phase HPLC
Format: physicochemical
Conditions: Acquity CSH C18; pH 7.2 buffer/CH3CN gradient; 40° C.
*: point of attachment. Lauroyl = CCCCCCCCCCCC(=O)*
experimental-readout: RT (retention time during reverse phase HPLC as a measure of hydrophobicity) (min)

Reference set (5 entries):
| substance | unit-abbreviation | recorded-number |
| --- | --- | --- |
| N-dodecanoyl-Ala-Ala-Glu-Tyr-OH (Lauroyl-AAEY-OH; SMILES CCCCCCCCCCCC(=O)N[C@@H](C)C(=O)N[C@@H](C)C(=O)N[C@@H](CCC(=O)O)C(=O)N[C@@H](Cc1ccc(O)cc1)C(=O)O) [Example 62] | min | 4.36 |
| N-dodecanoyl-Met-Ala-Pro-Tyr-OH (Lauroyl-MAPY-OH; SMILES CCCCCCCCCCCC(=O)N[C@@H](CCSC)C(=O)N[C@@H](C)C(=O)N1CCC[C@H]1C(=O)N[C@@H](Cc1ccc(O)cc1)C(=O)O) [Example 47] | min | 7.09 |
| N-dodecanoyl-Met-Ala-Ala-Pro-Tyr-OH (Lauroyl-MAAPY-OH; SMILES CCCCCCCCCCCC(=O)N[C@@H](CCSC)C(=O)N[C@@H](C)C(=O)N[C@@H](C)C(=O)N1CCC[C@H]1C(=O)N[C@@H](Cc1ccc(O)cc1)C(=O)O) [Example 46] | min | 7.06 |
| N-dodecanoyl-Ala-Phe-Pro-Tyr-OH (Lauroyl-AFPY-OH; SMILES CCCCCCCCCCCC(=O)N[C@@H](C)C(=O)N[C@@H](Cc1ccccc1)C(=O)N1CCC[C@H]1C(=O)N[C@@H](Cc1ccc(O)cc1)C(=O)O) [Example 84] | min | 7.77 |
| N-dodecanoyl-Ala-Ala-Pro-Tyr-OH [Example 17] (Lauroyl-AAPY-OH; SMILES CCCCCCCCCCCC(=O)N[C@@H](C)C(=O)N[C@@H](C)C(=O)N1CCC[C@H]1C(=O)N[C@@H](Cc1ccc(O)cc1)C(=O)O) | min | 5.83 |

[P] N-dodecanoyl-Phe-Pro-Tyr-OH [Example 124]
[Q] N-dodecanoyl-γGlu-Ala-Ala-Pro-Arg-OH [Example 25]
[in] Of P and Q , whose reported RT (retention time during reverse phase HPLC as a measure of hydrophobicity) is the larger number? State your choice using its label.
[out] P
